target.system: α4β3δ GABA receptors (α4β3δ-HEK-FlpIn-TRex stable cell strain) (Homo sapiens, UniProt P28472+P48169)
Construct: expressed in transfected cells
Sequence (P48169 36-554): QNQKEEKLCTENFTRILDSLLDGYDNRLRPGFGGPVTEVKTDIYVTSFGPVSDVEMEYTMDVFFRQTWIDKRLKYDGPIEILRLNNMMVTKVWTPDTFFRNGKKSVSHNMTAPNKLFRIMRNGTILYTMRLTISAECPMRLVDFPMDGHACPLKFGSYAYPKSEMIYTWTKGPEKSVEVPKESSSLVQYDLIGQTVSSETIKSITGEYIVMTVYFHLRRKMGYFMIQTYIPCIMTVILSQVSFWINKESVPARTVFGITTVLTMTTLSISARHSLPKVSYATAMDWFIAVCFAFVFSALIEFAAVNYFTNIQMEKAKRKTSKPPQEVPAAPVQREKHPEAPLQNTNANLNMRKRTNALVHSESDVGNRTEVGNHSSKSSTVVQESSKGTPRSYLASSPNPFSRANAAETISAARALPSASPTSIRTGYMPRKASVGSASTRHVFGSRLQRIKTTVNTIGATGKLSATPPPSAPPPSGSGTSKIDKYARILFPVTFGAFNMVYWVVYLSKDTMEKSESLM
Sequence (P28472 26-473): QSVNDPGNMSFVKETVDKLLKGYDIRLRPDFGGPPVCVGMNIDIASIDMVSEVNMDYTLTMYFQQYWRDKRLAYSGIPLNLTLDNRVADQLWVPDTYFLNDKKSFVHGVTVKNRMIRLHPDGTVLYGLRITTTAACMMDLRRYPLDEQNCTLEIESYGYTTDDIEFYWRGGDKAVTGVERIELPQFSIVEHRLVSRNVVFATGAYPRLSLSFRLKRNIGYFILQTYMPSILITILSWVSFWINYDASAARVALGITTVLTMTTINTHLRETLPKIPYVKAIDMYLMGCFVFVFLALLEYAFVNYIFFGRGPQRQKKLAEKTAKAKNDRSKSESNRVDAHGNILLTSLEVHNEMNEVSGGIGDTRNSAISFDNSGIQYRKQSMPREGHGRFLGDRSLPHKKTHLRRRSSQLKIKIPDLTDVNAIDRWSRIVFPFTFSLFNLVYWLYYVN
Sequence (O14764 25-452 partner): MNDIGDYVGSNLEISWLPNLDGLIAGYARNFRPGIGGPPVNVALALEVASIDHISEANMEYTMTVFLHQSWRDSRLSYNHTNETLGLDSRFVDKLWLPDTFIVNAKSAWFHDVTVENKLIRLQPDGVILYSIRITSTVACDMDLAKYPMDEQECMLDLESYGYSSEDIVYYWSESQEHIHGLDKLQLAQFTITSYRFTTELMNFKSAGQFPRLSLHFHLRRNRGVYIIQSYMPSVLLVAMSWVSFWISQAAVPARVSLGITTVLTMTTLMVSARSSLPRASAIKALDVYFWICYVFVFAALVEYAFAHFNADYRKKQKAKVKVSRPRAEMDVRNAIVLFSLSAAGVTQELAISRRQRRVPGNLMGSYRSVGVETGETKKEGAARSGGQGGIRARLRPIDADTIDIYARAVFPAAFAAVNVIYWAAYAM
procedure.summary: Whole-cell patch clamp, extrasynaptic functional activity (positive allosteric regulation of GABA-induced current)
Assay type: cell-based
details: patch clamp -60 mV, GABA at EC10-20, α4β3δ-HEK-FlpIn-TRex cells
Criterion: Emax strictly less than 500%. Met: MET. Not met: NOT MET.

As a guide, the following entries are already answered.
>  <compound>
C[C@@]1(O)CC[C@H]2[C@H](CC[C@@H]3[C@@H]2CC[C@]2(C)[C@@H](C(=O)Cn4c(=O)n(-c5ccccc5)c5ccccc54)CC[C@@H]32)C1 [Compound 13]

>  <cat>
MET

$$$$
>  <compound>
C[C@@]1(O)CC[C@H]2[C@H](CC[C@@H]3[C@@H]2CC[C@]2(C)[C@@H](C(=O)Cn4cnn(-c5ccnc(OCC(F)(F)F)c5)c4=O)CC[C@@H]32)C1 [Compound 39]

>  <cat>
NOT MET

$$$$
>  <compound>
C[C@@]1(O)CC[C@H]2[C@H](CC[C@@H]3[C@@H]2CC[C@]2(C)[C@@H](C(=O)Cn4cnn(-c5cccc(F)c5)c4=O)CC[C@@H]32)C1 [Compound 1]

>  <cat>
MET

$$$$
>  <compound>
C[C@@]1(O)CC[C@H]2[C@H](CC[C@@H]3[C@@H]2CC[C@]2(C)[C@@H](C(=O)Cn4cnn(-c5nccs5)c4=O)CC[C@@H]32)C1 [Compound 32]

>  <cat>
NOT MET

$$$$

Q: Please let me know if C[C@@]1(O)CC[C@H]2[C@H](CC[C@@H]3[C@@H]2CC[C@]2(C)[C@@H](C(=O)Cn4ncn(-c5ccc(F)cc5)c4=O)CC[C@@H]32)C1 [Compound 9] shows Emax below 500%.
A: MET

Q: Please let me know if C[C@@]1(O)CC[C@H]2[C@H](CC[C@@H]3[C@@H]2CC[C@]2(C)[C@@H](C(=O)Cn4cnn(-c5cc(F)nc(F)c5)c4=O)CC[C@@H]32)C1 [Compound 41] shows Emax below 500%.
A: NOT MET

* * *

procedure.summary: In vitro liver microsomal stability assay, rat
Assay type: in vitro ADME
details: Rat liver microsomes
Criterion: CLint scaled at 1 µM strictly less than 100 mL/min/kg. Met: Y. Not met: N.

>  <molecule>
C[C@@]1(O)CC[C@H]2[C@H](CC[C@@H]3[C@@H]2CC[C@]2(C)[C@@H](C(=O)Cn4cnn(-c5ccc(F)cc5F)c4=O)CC[C@@H]32)C1 [Compound 25]

>  <cat>
N

$$$$
>  <molecule>
C[C@@]1(O)CC[C@H]2[C@H](CC[C@@H]3[C@@H]2CC[C@]2(C)[C@@H](C(=O)Cn4cnn(CCOC(F)(F)F)c4=O)CC[C@@H]32)C1 [Compound 43]

>  <cat>
N

$$$$
>  <molecule>
C[C@@]1(O)CC[C@H]2[C@H](CC[C@@H]3[C@@H]2CC[C@]2(C)[C@@H](C(=O)Cn4cnn(-c5cc(F)nc(F)c5)c4=O)CC[C@@H]32)C1 [Compound 41]

>  <cat>
Y

$$$$
>  <molecule>
COc1cccc(-n2ncn(CC(=O)[C@H]3CC[C@H]4[C@@H]5CC[C@@H]6C[C@](C)(O)CC[C@@H]6[C@H]5CC[C@]34C)c2=O)c1 [Compound 5]

>  <cat>
N

$$$$

Q: Please let me know if C[C@@]1(O)CC[C@H]2[C@H](CC[C@@H]3[C@@H]2CC[C@]2(C)[C@@H](C(=O)Cn4cnn(-c5ccc(F)cc5)c4=O)CC[C@@H]32)C1 [Compound 4] shows CLint scaled at 1 µM below 100 mL/min/kg.
A: Y

Q: Please let me know if C[C@@]1(O)CC[C@H]2[C@H](CC[C@@H]3[C@@H]2CC[C@]2(C)[C@@H](C(=O)Cn4cnn(-c5cccc(F)c5F)c4=O)CC[C@@H]32)C1 [Compound 27] shows CLint scaled at 1 µM below 100 mL/min/kg.
A: N

Q: Please let me know if C[C@@]1(O)CC[C@H]2[C@H](CC[C@@H]3[C@@H]2CC[C@]2(C)[C@@H](C(=O)Cn4cnn(C5CCCC5)c4=O)CC[C@@H]32)C1 [Compound 29] shows CLint scaled at 1 µM below 100 mL/min/kg.
A: Y

Q: Please let me know if C[C@@]1(O)CC[C@H]2[C@H](CC[C@@H]3[C@@H]2CC[C@]2(C)[C@@H](C(=O)Cn4cnn(-c5ccccc5)c4=O)CC[C@@H]32)C1 [Compound 3] shows CLint scaled at 1 µM below 100 mL/min/kg.
A: Y

Q: Please let me know if C[C@@]1(O)CC[C@H]2[C@H](CC[C@@H]3[C@@H]2CC[C@]2(C)[C@@H](C(=O)Cn4ccn(-c5cccc(F)c5)c4=O)CC[C@@H]32)C1 [Compound 11] shows CLint scaled at 1 µM below 100 mL/min/kg.
A: N

Q: Please let me know if C[C@@]1(O)CC[C@H]2[C@H](CC[C@@H]3[C@@H]2CC[C@]2(C)[C@@H](C(=O)Cn4cnn(-c5ccnc(OCC(F)(F)F)c5)c4=O)CC[C@@H]32)C1 [Compound 39] shows CLint scaled at 1 µM below 100 mL/min/kg.
A: Y

* * *

Listed below: Emax values for each entry.
target.system: α4β3δ GABA receptors (α4β3δ-HEK-FlpIn-TRex stable cell strain) (Homo sapiens, UniProt P28472+P48169)
Construct: expressed in transfected cells
procedure.summary: Whole-cell patch clamp, extrasynaptic functional activity (positive allosteric regulation of GABA-induced current)
Format: cell-based
details: patch clamp -60 mV, GABA at EC10-20, α4β3δ-HEK-FlpIn-TRex cells
Express the result in % but write the number alone.

Solved entries:
>  <line.notation>
C[C@@]1(O)CC[C@H]2[C@H](CC[C@@H]3[C@@H]2CC[C@]2(C)[C@@H](C(=O)Cn4cnn(-c5cncc(F)c5)c4=O)CC[C@@H]32)C1

>  <Emax [%]>
601

$$$$
>  <line.notation>
C[C@@]1(O)CC[C@H]2[C@H](CC[C@@H]3[C@@H]2CC[C@]2(C)[C@@H](C(=O)Cn4cnn(-c5cccc(C(N)=O)c5)c4=O)CC[C@@H]32)C1

>  <Emax [%]>
386

$$$$
>  <line.notation>
COc1ccc(-n2ncn(CC(=O)[C@H]3CC[C@H]4[C@@H]5CC[C@@H]6C[C@](C)(O)CC[C@@H]6[C@H]5CC[C@]34C)c2=O)cn1

>  <Emax [%]>
474

$$$$

Q: Field request: Emax | item: `C[C@@]1(O)CC[C@H]2[C@H](CC[C@@H]3[C@@H]2CC[C@]2(C)[C@@H](C(=O)Cn4cnn(-c5ccnc(C(F)F)c5)c4=O)CC[C@@H]32)C1`
A: 432

Q: Field request: Emax | item: `COCCn1ncn(CC(=O)[C@H]2CC[C@H]3[C@@H]4CC[C@@H]5C[C@](C)(O)CC[C@@H]5[C@H]4CC[C@]23C)c1=O`
A: 609

Q: Field request: Emax | item: `C[C@@]1(O)CC[C@H]2[C@H](CC[C@@H]3[C@@H]2CC[C@]2(C)[C@@H](C(=O)Cn4cnn(-c5cc(F)cc(F)c5)c4=O)CC[C@@H]32)C1`
A: 441

* * *

procedure.summary: Pharmacokinetic study in SD rats (plasma and brain)
Assay type: in vivo
details: male, rat, brain/plasma, oral, IG 24.4 μmol/kg, 2 h, read-out: Brain-to-blood ratio
quantity: Kp at 2 h

Q: Field request: Kp at 2 h | item: C[C@@]1(O)CC[C@H]2[C@H](CC[C@@H]3[C@@H]2CC[C@]2(C)[C@@H](C(=O)Cn4cnn(-c5cc(F)nc(F)c5)c4=O)CC[C@@H]32)C1 [Compound 41]
A: 1.2

* * *

procedure.summary: Pharmacokinetic study in CD-1 mice (plasma and brain)
Format: in vivo
details: male, mouse, plasma, IV 1 mg/kg
quantity: half-life (h)
Express the result in h but write the number alone.

Q: Field request: half-life | item: `C[C@@]1(O)CC[C@H]2[C@H](CC[C@@H]3[C@@H]2CC[C@]2(C)[C@@H](C(=O)Cn4cnn(-c5cc(F)nc(F)c5)c4=O)CC[C@@H]32)C1`
A: 9

* * *

procedure.summary: In vitro liver microsomal stability assay, human
Type: in vitro ADME
details: Human liver microsomes; read-out: CLint(mic)
Procedure: 1) Preparation of working solutions of test samples: The test samples were diluted with acetonitrile to 100 M. 2) Preparation of a working solution of liver microsomes: liver microsomes were diluted with 100 mM phosphate-buffered saline to 0.56 mg/mL. […] 5) After the reaction was stopped, each sample was vortexed for 30 s and then centrifuged at 13,500 rpm for 10 min. […] The mixture was well mixed by vortexing and analyzed by LC-MS/MS. […]
quantity: microsomal CLint at 1 µM (µL/min/mg)
Express the result in µL/min/mg but write the number alone.

>  <line.notation>
CC(C)(C)n1ncn(CC(=O)[C@H]2CC[C@H]3[C@@H]4CC[C@@H]5C[C@](C)(O)CC[C@@H]5[C@H]4CC[C@]23C)c1=O

>  <microsomal CLint at 1 µM / µL/min/mg>
25

$$$$
>  <line.notation>
C[C@@]1(O)CC[C@H]2[C@H](CC[C@@H]3[C@@H]2CC[C@]2(C)[C@@H](C(=O)Cn4cnn(-c5cc(F)cc(C#N)c5)c4=O)CC[C@@H]32)C1

>  <microsomal CLint at 1 µM / µL/min/mg>
14

$$$$

Q: Field request: microsomal CLint at 1 µM | item: `Cc1cc(-n2ncn(CC(=O)[C@H]3CC[C@H]4[C@@H]5CC[C@@H]6C[C@](C)(O)CC[C@@H]6[C@H]5CC[C@]34C)c2=O)ccn1`
A: 59

Q: Field request: microsomal CLint at 1 µM | item: `Cn1ncn(CC(=O)[C@H]2CC[C@H]3[C@@H]4CC[C@@H]5C[C@](C)(O)CC[C@@H]5[C@H]4CC[C@]23C)c1=O`
A: 11

Q: Field request: microsomal CLint at 1 µM | item: `C[C@@]1(O)CC[C@H]2[C@H](CC[C@@H]3[C@@H]2CC[C@]2(C)[C@@H](C(=O)Cn4cnn(-c5nccs5)c4=O)CC[C@@H]32)C1`
A: 21

Q: Field request: microsomal CLint at 1 µM | item: `C[C@@]1(O)CC[C@H]2[C@H](CC[C@@H]3[C@@H]2CC[C@]2(C)[C@@H](C(=O)Cn4cnn(C5CCCCC5)c4=O)CC[C@@H]32)C1`
A: 79

Q: Field request: microsomal CLint at 1 µM | item: `C[C@@]1(O)CC[C@H]2[C@H](CC[C@@H]3[C@@H]2CC[C@]2(C)[C@@H](C(=O)Cn4cnn(-c5cccc(F)c5)c4=O)CC[C@@H]32)C1`
A: 4.2

Q: Field request: microsomal CLint at 1 µM | item: `C[C@@]1(O)CC[C@H]2[C@H](CC[C@@H]3[C@@H]2CC[C@]2(C)[C@@H](C(=O)Cn4cnn(-c5cc(F)ccc5F)c4=O)CC[C@@H]32)C1`
A: 19
